Experiment: NCI Yeast Anticancer Drug Screen. Data for the sgs1 strain (AID 173);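 further: 0% = growth of vehicle-only control cultures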
Details: S. cerevisiae sgs1 mutant, at 100.0 µM, hits give high values
About 79,000 compounds went through this panel and 15% of them were active in at least one assay; those are over-represented in the sample as a whole.
Label satisfied when growth inhibition is at or above 60%; anything below gets not satisfied.

Example entries begin here.
* Nc1ccc2ncc(Nc3ccc(Cl)c(Cl)c3)nc2c1 | satisfied
* Cc1cc(N(CCOS(C)(=O)=O)CCOS(C)(=O)=O)ccc1C=O | not satisfied
* O=S(=O)(Oc1c(Cl)cc(Cl)cc1Cl)c1ccccc1 | not satisfied
* CCC(C)C(=O)OCC(=O)c1ccc(-c2ccccc2)cc1 (configuration not stated) | not satisfied
* O=S(=O)(CCC[C@H]1[C@@H](CCOCc2ccccc2)C2CCCN1O2)c1ccccc1 (some centres not stated) | not satisfied

Quick check: does CC(C)(C)[Si](C)(C)OCC1OC(n2cnc3c(N)ncnc32)C2OC(=S)OC12 (configuration not stated) have growth inhibition greater than or equal to 60%?
satisfied

What about this compound? "CNc1ccc2[nH]c3ccccc3c2c1"
satisfied

###

Experiment: NCI Yeast Anticancer Drug Screen. Data for the wt1 strain (AID 149);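 further: 0% = growth of vehicle-treated wt1 cultures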
Details: S. cerevisiae wt1 strain (SPY 50644) growth inhibition; at 11.0 µM; hits give high values
This is part of a sample that, as a whole, favours compounds with a hit. Of some 79,000 tested, about 15% had one in any assay.
Endpoint name: growth inhibition (%)
Enter your answer as a number in %; do not include the unit.

- CCOc1ccccc1N1C(=O)CC(Sc2ccccc2N)C1=O (stereo not drawn): 10
- CC[C@]1(O)C[C@H]2CN(CCc3c([nH]c4ccccc34)[C@@](C(=O)OC)(c3cc4c(cc3OC)N(C)[C@H]3[C@@](O)(C(=O)OC)[C@H](OC(C)=O)[C@]5(CC)C=CCN6CC[C@]43[C@@H]65)C2)C1: -2
- O=S(=O)(O)c1ccc2c(N=Nc3c(O)ccc4ccccc34)cccc2c1: 21
- c1cc(Nc2ccc3c(c2)OCO3)c2cc(C3CCCCC3)ccc2n1: -4
- CCC(C)C(=O)OCC(=O)c1ccc(-c2ccccc2)cc1 (stereo not drawn): -2
- O=c1[nH]cc(F)c(=O)[nH]1: 9
- CC1=NN(C(=O)CC(=O)N(C(=O)c2ccccc2)c2ccc(Cl)cc2)C(=O)C1N=Nc1ccc([N+](=O)[O-])cc1 (stereo not drawn): 10
- O=C1c2ccccc2C(=O)C1C(c1ccc(F)cc1)C1C(=O)c2ccccc2C1=O: 7

# growth inhibition lookup, item "CC(C)(C(=O)NN)c1ccccc1"
34

What about this molecule? O=C(O)NCC1CCCCC1 (tested in a mixture with another compound)
-4

What about this molecule? "Cc1ccc2c(/C=C/c3ccc(N(C)C)cc3)ccnc2c1C"
-44

What about this molecule? CSc1ccc2c(c1)C(N1CCN(C)CC1)Cc1ccccc1S2 (stereo not drawn)
-57

What about this molecule? "BrC/C=C/C[P+](c1ccccc1)(c1ccccc1)c1ccccc1"
94

###

Experiment: NCI Yeast Anticancer Drug Screen. Data for the bub3 strain (AID 167)
Details: S. cerevisiae bub3 mutant strain, at 50.0 µM
Description: Growth inhibition of yeast strains with defined genetic alterations is measured as a screen for potential anti-cancer activity. Selected strains with alterations in DNA damage repair or cell cycle control were exposed to compounds and growth inhibition was measured relative to vehicle treated controls. The strain used in this assay is bub3
Compounds without any hit were thinned out: in the full panel of roughly 79,000, 15% have a hit. The source made the active and inactive calls. Cut-off read from the data, not from the text of the source: active = growth inhibition above about 70%; inactive = the rest.
Reply using exactly one outcome from active, inactive

Example entries begin here.
- CCc1nc2ccc(N=Nc3c(O)ccc4ccccc34)cc2[nH]1: active
- CCCCCCC(CCl)c1sc(-c2csc(CCNC(=O)OC(C)(C)C)n2)nc1C(=O)OC (stereo not given): inactive
- Nc1ccc2ncc(Nc3ccc(Cl)c(Cl)c3)nc2c1: active
- O=CC(=C(I)I)c1ccccc1: active
- Nc1cccc2cc(Cl)cnc12: inactive

Which outcome was assigned to "O=Cn1c2ccccc2c2ccccc21" in this test?
inactive

What about this compound? "CN(C)CCn1c2ccccc2c2nc3cc4ccccc4cc3nc21"
active
